experiment: JHH-DIPG-1 glioma cell viability, MIPE5.0 library, CellTiter-Glo luminescence, qHTS (AID 1347067); conditions: JHH-DIPG-1 glioma viability, CellTiter-Glo ATP luminescence;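 also: cells exposed to compound for 48 hours before readout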
Records with an inconclusive call do not appear. Calls of active or inactive are those of the source. The limit is not given here; nearly all actives have AC50 up to about 26 µM.
Pick one: active, inactive

For orientation, consider the following solved cases.
CC(/C=C1\SC(=S)N(CC(=O)O)C1=O)=C\c1ccccc1 = inactive
O=C(O)CCCCN(CCc1ccccc1OCc1ccc(CCc2ccccc2)cc1)Cc1ccc(C(=O)O)cc1 = inactive
Cc1cc(C)c(S(=O)(=O)N(CCc2cccc(Br)c2)Cc2ccc(-c3cccc(S(C)(=O)=O)c3)cc2)c(C)c1 = inactive

-- ask Per the records of this test, what outcome belongs to N=C1CCCN1Cc1[nH]c(=O)[nH]c(=O)c1Cl ?
-- reply inactive

-- ask Per the records of this test, what outcome belongs to O=C(O)CCCCCC(=O)NN=C1CCCC1 ?
-- reply inactive

-- ask Per the records of this test, what outcome belongs to O=C(/C=C\n1cnc(-c2cc(C(F)(F)F)cc(C(F)(F)F)c2)n1)NNc1cnccn1 ?
-- reply active

-- ask Per the records of this test, what outcome belongs to Cc1c(CN2CCN(S(C)(=O)=O)CC2)sc2c(N3CCOCC3)nc(-c3cnc(N)nc3)nc12 ?
-- reply active

-- ask Per the records of this test, what outcome belongs to CCn1c(=O)c(-c2ccc(-c3cncs3)cc2Cl)cc2cnc(Nc3ccc(N4CCN(C)CC4)cc3)nc21 ?
-- reply active

-- ask Per the records of this test, what outcome belongs to CCNCCc1ccc(CN(CC)c2cc(OC)ccc2[C@@H]2CCc3cc(O)ccc3C2)cc1 ?
-- reply active

-- ask Per the records of this test, what outcome belongs to COc1cc2c(Oc3ccc(NC(=O)C4(C(=O)Nc5ccc(F)cc5)CC4)cc3F)ccnc2cc1OCCCN1CCOCC1 ?
-- reply active

-- ask Per the records of this test, what outcome belongs to Cc1ccc(C(C)(O)c2nc3ccccc3s2)c(C)c1 (stereo not drawn) ?
-- reply inactive

----------
assay: viability loss in pontine glioma line – cell-based, SU-DIPG-XIII, MIPE5.0, CellTiter-Glo, qHTS, dose response (AID 1347064); conditions: CellTiter-Glo ATP luminescence;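 as to AC50: cells exposed to compound for 48 hours before the viability read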
Inconclusive results are not listed. Calls of active or inactive are those of the source. Cut-off not given; nearly all actives show AC50 up to about 23 µM.
Pick one: TRUE for active, FALSE for inactive

For orientation, consider the following solved cases.
Cc1c(CN2CCN(S(C)(=O)=O)CC2)sc2c(N3CCOCC3)nc(-c3cnc(N)nc3)nc12 = TRUE
C=CC(=O)Nc1cccc(Nc2nc(Nc3ccc(OCCOC)cc3)ncc2F)c1 = TRUE
CC(C)[C@H]1C(=O)N[C@@H](CCCN=C(N)N)C(=O)NCC(=O)N[C@@H](CC(=O)O)C(=O)N[C@H](Cc2ccccc2)C(=O)N1C = FALSE
CCNCCc1ccc(CN(CC)c2cc(OC)ccc2[C@@H]2CCc3cc(O)ccc3C2)cc1 = TRUE
Cc1cc(-c2nc3cc(F)ccc3s2)ccc1NC(=O)[C@@H](N)CCCCN = TRUE

-- ask Per the records of this test, what outcome belongs to CC(C)=CCC[C@](C)(O[C@@H]1O[C@H](CO[C@@H]2O[C@H](CO)[C@@H](O)[C@H](O)[C@H]2O)[C@@H](O)[C@H](O)[C@H]1O)[C@H]1CC[C@]2(C)[C@@H]1[C@H](O)C[C@@H]1[C@@]3(C)CC[C@H](O[C@@H]4O[C@H](CO)[C@@H](O)[C@H](O)[C@H]4O[C@@H]4O[C@H](CO)[C@@H](O)[C@H](O)[C@H]4O)C(C)(C)[C@@H]3CC[C@]12C ?
-- reply FALSE

-- ask Per the records of this test, what outcome belongs to O=S(=O)(O)c1ccc2cc(N=Nc3cc(S(=O)(=O)O)c4cccnc4c3O)ccc2c1 ?
-- reply FALSE

-- ask Per the records of this test, what outcome belongs to COc1ccc(-c2cc3c(C)nc(N)nc3n(C3CCC(OCCO)CC3)c2=O)cn1 (stereo unspecified) ?
-- reply TRUE

-- ask Per the records of this test, what outcome belongs to CN(C)C/C=C/C(=O)Nc1cccc(C(=O)Nc2cccc(Nc3ncc(Cl)c(-c4c[nH]c5ccccc45)n3)c2)c1 ?
-- reply TRUE

-- ask Per the records of this test, what outcome belongs to O=S(=O)(c1cccc2c(I)cccc12)N1CCCNCC1 ?
-- reply FALSE

-- ask Per the records of this test, what outcome belongs to O=C1Cc2cc(C(=O)NC3C[C@H]4CC[C@@H](C3)N4S(=O)(=O)CC3CCN(CCCC(F)(F)F)CC3)c(Cl)cc2N1 (stereo partly specified) ?
-- reply FALSE

-- ask Per the records of this test, what outcome belongs to NC(=O)c1cccc2c(NC(CN3CCC3)c3ccc(Cl)c(C(F)(F)F)c3)ncnc12 (stereo unspecified) ?
-- reply TRUE

-- ask Per the records of this test, what outcome belongs to Oc1ccc(C2CCN(c3ccnc4ccccc34)CC2)cc1O ?
-- reply TRUE

----------
assay: drug combination growth inhibition, ovarian cancer – cell-based, oncology-focused library, rucaparib conditional, profiling panel (AID 1508598); conditions: patient-derived ovarian cancer cells, CellTiter-Glo viability, 144 h; at 0.313 µM; OCI-P5x cells; with rucaparib 20 µM; 100% = cells with rucaparib alone
Active and inactive are the calls of the source.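 The calls were made as follows: active = normalized viability below 100% at a tested concentration; inactive = the rest.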
Pick one: active, inactive

For orientation, consider the following solved cases.
CS(=O)(=O)N1CCc2c(-c3cnc(N)nc3)nc(N3CCOCC3)nc21 = inactive
Cc1ccc2c(=O)c3cccc(CC(=O)O)c3oc2c1C = active
Cc1cc(N2CCOCC2)cc2[nH]c(-c3c(NC[C@@H](O)c4cccc(Cl)c4)cc[nH]c3=O)nc12 = active
CCC[C@H](NC(=O)/C(C#N)=C/c1cccc(Br)n1)c1ccccc1 = inactive

-- ask Per the records of this test, what outcome belongs to N#CCNC(=O)c1ccc(-c2ccnc(Nc3ccc(N4CCOCC4)cc3)n2)cc1 ?
-- reply active

-- ask Per the records of this test, what outcome belongs to COc1ccc(-c2ccc3c(N4CCOC[C@@H]4C)nc(N4CCOC[C@@H]4C)nc3n2)cc1CO ?
-- reply active

-- ask Per the records of this test, what outcome belongs to CN1CCN(c2cccc(Nc3nc4c(-c5ccc(S(C)(=O)=O)cc5)cccn4n3)c2)CC1 ?
-- reply inactive

-- ask Per the records of this test, what outcome belongs to CN1CCN(c2nc(C3=C(c4c[nH]c5ccccc45)C(=O)NC3=O)c3ccccc3n2)CC1 ?
-- reply inactive

-- ask Per the records of this test, what outcome belongs to CNC(=O)c1ccc(N2C(=S)N(c3ccc(C#N)c(C(F)(F)F)c3)C(=O)C2(C)C)cc1F ?
-- reply inactive

-- ask Per the records of this test, what outcome belongs to CCN1CCN(Cc2ccc(-c3cc4c(N[C@H](C)c5ccccc5)ncnc4[nH]3)cc2)CC1 ?
-- reply active

-- ask Per the records of this test, what outcome belongs to NC(=O)c1ccc(I)c([N+](=O)[O-])c1 ?
-- reply inactive

----------
experiment: growth inhibition, single agents and combos, CRL2098, cell-based, BGB or cisplatin IC20 combos, synergistic combos for chromothripsis tumors (AID 1671454); details: CRL2098 osteosarcoma cells, drug combinations, measured here: combination with cisplatin at IC20, at 0.5 µM, stronger effect = higher value;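 also: cells exposed for 96 h before readout; 0% = vehicle DMSO and 100% = killing by high DMSO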
EXPERIMENTAL ENDPOINT: inhibition (%)
Report as a plain number; the unit % is understood.

Solved cases below.
Nc1ccc(-c2ccc3ncc4ccc(=O)n(-c5cccc(C(F)(F)F)c5)c4c3c2)cn1 = 49.4
CN[C@@H]1CN(c2ccc3c(=O)c(C(=O)O)cn(-c4nccs4)c3n2)C[C@H]1OC = -2.11

-- ask // query inhibition value for entry O=c1[nH]cnc2ccccc12
-- reply -103

-- ask // query inhibition value for entry Nc1ccccc1NC(=O)c1ccc(CNc2nccc(-c3cccnc3)n2)cc1
-- reply 19.9

-- ask // query inhibition value for entry COc1ccc(C(=O)C2CCN(CC(=O)N(Cc3nc4c(c(=O)[nH]3)COCC4)CC3CC3)CC2)cc1
-- reply -29.9

-- ask // query inhibition value for entry COc1cc(C=O)c([N+](=O)[O-])cc1OC
-- reply -11

-- ask // query inhibition value for entry NC(=O)c1nc(F)c[nH]c1=O
-- reply 9.34

-- ask // query inhibition value for entry Cc1ccc([N+](=O)[O-])cc1S(=O)(=O)N(C)/N=C/c1cnc2ccc(Br)cn12
-- reply 95.8

-- ask // query inhibition value for entry CCCCc1nc2cc(/C=C/C(=O)NO)ccc2n1CCN(CC)CC
-- reply 1.66

-- ask // query inhibition value for entry O=c1[nH]c([C@@H]2CCCN2)nc2c1oc1ccc(Cl)cc12
-- reply -117

-- ask // query inhibition value for entry Cc1ccc2nc(NCCN)c3ncc(C)n3c2c1
-- reply -60.3

# credit: PubChem BioAssay
